Tested on: PPARg DBDmut IVT, anti-PPARg (DBD mutation: PPARg1 K132A/R137A, NR concentration 270 nM)
Experiment: PBM binding z-score (relative to random genomic background probes); higher = stronger binding; sequences stand for … in GC…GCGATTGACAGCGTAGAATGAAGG
We use 0.07 as the dividing line for PBM binding z-score: on or above the line is T, below is F.

# SEQUENCE CODE, ANSWER LABEL
rows = [
    ("TAGAGTAGGTTAGTCGGGGCATTCAGCCAACATA", "T"),
    ("TGAATGAGTTTATAAGATCAGGGAACGTTGCAAA", "T"),
    ("CCTAGTTGCTCAAGGTCACACACGCTATAGGTAC", "T"),
    ("ATATGTATGTTATCGGGTCATTCAGTTTGCGCAT", "T"),
    ("GCGACTGGGGCAAAGCAGGTTACCATGAGGTTGG", "F"),
    ("GCGACTGGGGCAAAGCAGGTTACCTTAAGGTTGG", "F"),
    ("CCTTCTGGGCCATCAGGTCATTGATATCAACGTT", "T"),
    ("ACTATTAGTGGAGACGAGGGCAACCGATAGGTTG", "T"),
    ("TCATATAGGTAAAGGTTAAAGTCGAACGATATGA", "T"),
    ("CCTACTGGACCAAAGGTCATTGATTCCAATGCTC", "T"),
    ("CCTACTGGGCCAAAAAGGTCTTTGATGCCGATAA", "F"),
    ("CAAATTAGGTCAAGAGGTCAAAGTCCGCTTCCCG", "T"),
    ("CAGCCTGGGTCAGGGCCAGTATAGGAGGAACGTT", "F"),
    ("ACTAGCAGGCCAAGTTTGGGTCACTCATACAAAG", "F"),
    ("TCTAGGTGGTCACGGAGGTCACACACGACGGGTA", "T"),
]

====

Measured PBM binding z-score by item
Tested on: RXRa homodimer (NR concentration 180 nM)
Experiment: PBM binding z-score (relative to random genomic background probes); higher = stronger binding; sequences stand for … in GC…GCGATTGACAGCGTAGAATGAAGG
READOUT: PBM binding z-score

# SEQUENCE CODE, ASSAYED SYSTEM, READOUT, RESULT
rows = [
    ("GCTAGCAGGCCACTTGGGTCACTCAATGACGGGC", "RXRa homodimer (NR concentration 180 nM)", "PBM binding z-score", 0.892),
    ("GATACCGGGTCAGCTAGAGGCCAGAGTATGGAAA", "RXRa homodimer (NR concentration 180 nM)", "PBM binding z-score", 2.83),
    ("TCTCGGCGGACACGAAGGTCAGAGCTTTCCAGAG", "RXRa homodimer (NR concentration 180 nM)", "PBM binding z-score", 1.28),
    ("TCATATTGGTAAATGCTAGGTGAAAGTCCGATCT", "RXRa homodimer (NR concentration 180 nM)", "PBM binding z-score", 0.255),
    ("CAAACTAGGTCACAGCGGTCAAAGTCCGTGCGTA", "RXRa homodimer (NR concentration 180 nM)", "PBM binding z-score", 3.87),
    ("ACTTTCGGGTCAACGAGGTTATAGCACGCGTATA", "RXRa homodimer (NR concentration 180 nM)", "PBM binding z-score", 6.2),
    ("CCTTACGGGTCACTAACAGGTTATAGCATTTGGA", "RXRa homodimer (NR concentration 180 nM)", "PBM binding z-score", 4.25),
    ("ACAGACAGGTGAGTGACGGTAACTCAGCTGGACG", "RXRa homodimer (NR concentration 180 nM)", "PBM binding z-score", 0.416),
    ("TGAATGAGGTTAAAGACCAGGGAACGTGGCGTCG", "RXRa homodimer (NR concentration 180 nM)", "PBM binding z-score", 2.95),
    ("AACACAGGGTCACTAGGCCAGAGTAGGTACGAAT", "RXRa homodimer (NR concentration 180 nM)", "PBM binding z-score", 5.24),
    ("ATCTCTAGGTAACCAAGTTCAGCGAATGCCGAAC", "RXRa homodimer (NR concentration 180 nM)", "PBM binding z-score", 0.733),
    ("TCGTATAGGTAAACAGGTGAAAGTCCGTAAGTTA", "RXRa homodimer (NR concentration 180 nM)", "PBM binding z-score", 0.637),
    ("CCTAGCAGGCGAATCTGGGTCACTCAAGGCTTGA", "RXRa homodimer (NR concentration 180 nM)", "PBM binding z-score", 0.669),
    ("CAGCCTAGGTCAGGGCCAGTACAGGAGGAACGTT", "RXRa homodimer (NR concentration 180 nM)", "PBM binding z-score", 1.45),
    ("ATCTCTAGGTAAAGATAGTTCGGTGAATGCAAAT", "RXRa homodimer (NR concentration 180 nM)", "PBM binding z-score", -0.171),
    ("ATATGTAGGTTAAGTGTCATTCAGGTTGGTTCGC", "RXRa homodimer (NR concentration 180 nM)", "PBM binding z-score", 1.9),
    ("GCTACAGGGTCAAGGCCAGAGTACGCGTATTGAT", "RXRa homodimer (NR concentration 180 nM)", "PBM binding z-score", 5.92),
    ("AGAATGAGGTTATACCTAGATCAGGGAAGAAAGT", "RXRa homodimer (NR concentration 180 nM)", "PBM binding z-score", 2.12),
]
